Below, each entry is listed alongside its reported IC50.
- TEST_SYSTEM: Opioid receptor (Rattus norvegicus, UniProt P33533+P34975+P33535)
- TEST_DETAILS: Displacement of [3H]-naloxone from rat opioid receptor after 30 mins by liquid scintillation counting analysis in presence of NaCl
- Assay type: protein assay
ENDPOINT: IC50 (nM)

>>> test_result("CC[C@@H](C)N1CC[C@]23c4c5ccc(O)c4O[C@H]2[C@@H](O)C=C[C@H]3[C@H]1C5")
110
>>> test_result("C=C[C@H](C)N1CC[C@]23c4c5ccc(O)c4O[C@H]2[C@@H](O)C=C[C@H]3[C@H]1C5")
25
>>> test_result("CC(Cc1ccccc1)N1CC[C@]23c4c5ccc(O)c4O[C@H]2[C@@H](O)C=C[C@H]3[C@H]1C5 (some centres not stated)")
125
>>> test_result("CC(C)(Cc1ccccc1)N1CC[C@]23c4c5ccc(O)c4O[C@H]2[C@@H](O)C=C[C@H]3[C@H]1C5")
1000
>>> test_result("Oc1ccc2c3c1O[C@H]1[C@@H](O)C=C[C@H]4[C@@H](C2)N(C2CCCCC2)CC[C@@]341")
92
>>> test_result("CCCC(C)N1CC[C@]23c4c5ccc(O)c4O[C@H]2[C@@H](O)C=C[C@H]3[C@H]1C5 (some centres not stated)")
340
>>> test_result("C=C[C@@H](C)N1CC[C@]23c4c5ccc(O)c4O[C@H]2[C@@H](O)C=C[C@H]3[C@H]1C5")
80

src = ChEMBL document CHEMBL3272183
